Data origin, for the record: PubChem BioAssay (NCI)

Here, each record is paired with measured growth data.
Tested on: M14 melanoma
Experiment: NCI-60 one-dose screen, 48 h (100 = growth as untreated, 0 = no growth, -100 = all killed)
Conditions: 10 µM unless noted
Compounds without any hit were thinned out: in the full panel of roughly 83,000, 20% have a hit. Calls of active or inactive are those of the source. How the source made its calls: active means growth percent below 10; inactive means the rest.

CC[C@H](C)C(=O)O[C@H]1CCC=C2C=C[C@H](C)[C@H](CC[C@@H]3CC=CC(=O)O3)[C@H]21 :: 76.4% (inactive)
c1ccc2cc(C[n+]3ccn(CCCCCCCCCCCCn4cc[n+](Cc5ccc6ccccc6c5)c4)c3)ccc2c1 :: -44.9% (active)
O=C1COCCN1c1ccc(NCc2cn(C(=O)c3ccc(Cl)cc3)c3ccccc23)cc1 :: 74.1% (inactive)

Note: attention shifts to another entry.
Log: M14 melanoma, molecule CCCCCCCCCCCCCCCCCC1OCC(COC(=O)O[C@]2(CC)C(=O)OCc3c2cc2n(c3=O)Cc3cc4ccccc4nc3-2)O1 (some centres undefined) , growth = 75.3% (inactive)
